Experiment Description: Lipophilicity HPLC determination (logk)
Assay type: physicochemical
Particulars: HPLC capacity factor, C18, MeOH 70%/H2O 30%, 30 °C
Assign classes using reported logk values and the ranges low range = under -0.2, mid range = from -0.2 up to 0.5, high range = 0.5 and over, please.

Some solved entries appear below for comparison.
compound=NC(=O)c1nccnc1NC1CCCCC1 label_value="mid range"
compound="CCCCCCNc1nccnc1C(N)=O [Compound 7, 3-(Hexylamino)pyrazine-2-carboxamide]" label_value="high range"
compound="CCCCCNc1nccnc1C(N)=O [Compound 5, 3-(Pentylamino)pyrazine-2-carboxamide]" label_value="mid range"
compound="CNc1nccnc1C(N)=O [Compound 1, 3-(Methylamino)pyrazine-2-carboxamide]" label_value="low range"
compound=NC(=O)c1nccnc1NC1CCCC1 label_value="mid range"
compound="CCCCCCCCNc1nccnc1C(N)=O [Compound 9, 3-(Octylamino)pyrazine-2-carboxamide]" label_value="high range"
compound="CCCCCCCNc1nccnc1C(N)=O [Compound 8, 3-(Heptylamino)pyrazine-2-carboxamide]" label_value="high range"
compound="NC(=O)c1nccnc1N1CCNCC1 [Compound 18, 3-(Piperazin-1-yl)pyrazine-2-carboxamide]" label_value="low range"

Task item: Class for NC(=O)c1nccnc1N1CCOCC1 [Compound 16, 3-(Morpholin-4-yl)pyrazine-2-carboxamide] ?
Reply: low range

Task item: Please answer likewise for CCCNc1nccnc1C(N)=O [Compound 3, 3-(Propylamino)pyrazine-2-carboxamide]
Reply: mid range

Task item: Please answer likewise for CCCCN(CCCC)c1nccnc1C(N)=O [Compound 10, 3-(Dibutylamino)pyrazine-2-carboxamide]
Reply: high range
